src = PubChem BioAssay (NCI)

Tested on: SN12C renal
Assay Procedure: NCI-60 one-dose screen, 48 h
Assay Setup: 10 µM unless noted
This is part of a sample that, as a whole, favours compounds with a hit. Of some 83,000 tested, about 20% had one in any assay. Activity calls are given as the source filed them. The calls were made as follows: active = growth percent below 10; inactive = the rest.
Outcome codes: active, inactive

Smiles | Category Label
O=C(Nc1ccc(Cl)cc1)Nc1nc2ccc([N+](=O)[O-])cc2s1 | active
CCCCCCNC(=O)Oc1ccc(/C(=C(\C)c2ccc(Cl)cc2)c2ccc(OCCN(C)C)cc2)cc1 | inactive
COc1cc2c3c(n(CCCNC4CCC4)c(=O)c2cc1OC)-c1cc2c(cc1C3=O)OCO2 | active
O=C1c2c(O)cc(O)cc2O[C@@H](c2ccc(O)cc2)[C@@H]1c1c(O)cc(O)c2c(=O)cc(-c3ccc(O)c(O)c3)oc12 | inactive

====

System: UACC-62 melanoma
Assay Procedure: NCI-60 one-dose screen, 48 h
Assay Setup: 10 µM unless noted
About 83,000 compounds went through this panel and 20% of them were active in at least one assay; those are over-represented in the sample as a whole. The source made the active and inactive calls. Rule for the calls: active = growth percent below 10; inactive = the rest.
Outcome codes: active, inactive

Molecule | Category Label
CS(=O)(=O)c1nccc(-c2c(-c3ccc(F)c(OCCc4ccccc4)c3)nc3sccn23)n1 | inactive
O=C1/C(=C/c2ccc([N+](=O)[O-])cc2)SC(=Nc2ccccc2)N1Nc1ccccc1 | inactive
CCOC(=O)c1nn(-c2ccccc2)c(=O)c2c(N)c(C#N)c(-c3cccs3)cc12 | inactive
Nc1ccc(-c2nnc(SCc3ccc(O)c4ncccc34)o2)cc1 | active
COC[C@@]1(C)CC[C@]2(C)CC[C@]3(C)C(=CC[C@@H]4[C@@]5(C)CCCNC(C)(C)[C@@H]5CC[C@]43C)C2C1 (stereo not given in full) | inactive
O=C(CCCCCCN1CC(=O)N2[C@@H](c3ccc(Cl)c(F)c3)c3[nH]c4ccccc4c3C[C@H]2C1=O)NO | inactive
CC1(C)CC[C@]2(C(=O)O)CC[C@]3(C)C(=CCC4[C@@]5(C)C[C@@H](O)[C@@H]6OC(c7ccccc7O)OC[C@@]6(C)C5CC[C@]43C)C2C1 (stereo not given in full) | inactive
COc1cc(O)c2c(c1)[C@H]1O[C@@H]1C[C@H](O)[C@H](O)C(=O)/C=C\C[C@H](C)OC2=O | active
O=C(COc1ccc(C2SCC(=O)N2c2ccc(F)cc2)cc1)c1ccccc1 (stereo not given) | inactive
N/C(=N\OC(=O)CSc1nc2ccccc2s1)c1ccc2ccccc2c1 | inactive
COC1=C(c2ccccc2)C(=O)C(OC)=C(c2ccccc2)C1=O | inactive
COc1ccc(-c2nc3cc(Cl)c(Cl)cc3n2CC(=O)N=Nc2c(O)[nH]c3ccccc23)cc1 | inactive
O=c1oc2ccc(-c3ccc(F)cc3F)cc2c(=O)n1-c1cccc(C(F)(F)F)c1 | active
CCc1ccc(NC(=O)N[C@@H](Cc2cccc(C)c2)C(=O)N[C@@H]2C(=O)N3CCC[C@H]3C(=O)N3CCCC[C@H]3C(=O)N[C@@H](CO)C(=O)N3C[C@H](C)C[C@H]3C(=O)O[C@H]2C)c(F)c1 | inactive
COc1ccc(Cn2cc3c(c2-c2cc(OC)c(OC)c(OC)c2)CCCc2cnoc2-3)cc1N | inactive
COc1cc(C2=NN(C(C)=O)C(c3ccc(N4CCOCC4)cc3)C2)cc(OC)c1OC (stereo not given) | inactive
COc1cc(O)c2c(c1)/C=C/C[C@H](O)[C@H](O)C(=O)/C=C\C[C@H](C)OC2=O | active
CCN(CC)c1ccc2cc(C(=O)NCCOCCOCCOCCn3cc(CCC(=O)Nc4ccc(C(=O)c5ccc(NC(=O)OC(C)(C)C)cc5)cc4)nn3)c(=O)oc2c1 | inactive
Cc1cc(O)c2c(c1)C(=O)C(c1c(C)cc3c(c1O)C(=O)C=CC3=O)=CC2=O | inactive
COc1ccc(OC)c(NC2=C(Cl)C(=O)C(C)=C(C)C2=O)c1 | inactive
Cc1ccccc1/C=C/c1nn2c(-c3ccoc3C)nnc2s1 | inactive
Cc1cn(-c2cc(NC(=O)c3cncc(C#Cc4cnc5ccc(O[C@@H]6CCOC6)nn45)c3)cc(C(F)(F)F)c2)cn1 | active
O=C1Nc2ccc(Cl)cc2/C1=C/c1ccc(OCc2ccc(F)cc2)cc1 | inactive
COc1ccc(/C=N\NC(=O)c2ccc3nc(-c4ccc(Br)cc4)[nH]c3c2)cc1 | inactive
N/C(=N\c1nc2ccc([N+](=O)[O-])cc2s1)C(Cl)(Cl)Cl | inactive
Oc1ccccc1-c1nnc(SCc2ccc(O)c3ncccc23)n1-c1ccccc1 | active
O=C(Nc1ccc(-c2nc(-c3cccc(O)c3)c(-c3ccnc(Br)c3)[nH]2)cc1)c1ccccc1 | inactive
Cc1ccc(NC(=O)c2ccc(CN3CCN(C)CC3)c(I)c2)cc1Oc1ccc(-c2[nH]nc3ncnc(N)c23)cc1 | inactive
O=C1c2c(c3c4cc(Br)ccc4[nH]c3c3ccc4ccccc4c23)C(=O)N1CCN1CCNCC1 | inactive
CCN1C(=O)N(CC)C2SC(N/N=C/c3ccccc3)=NC21 (stereo not given) | inactive
Nc1c(C(=O)c2ccccc2)sc2nc(-c3cnccn3)cc(-c3cccs3)c12 | inactive
Cc1ccc(-n2cc(/C=C/C(=O)c3ccc(S(C)(=O)=O)cc3)c(-c3ccc(S(C)(=O)=O)cc3)n2)cc1 | inactive
NC(=S)N/N=C(/C=C/c1cn(-c2ccccc2)nc1-c1ccc(Cl)cc1)c1cc2ccccc2oc1=O | inactive
COc1ccc([C@H]2[C@H](O)C(=O)N2c2cc(OC)c(OC)c(OC)c2)cc1 | inactive
COc1ccc(-c2nn(-c3ccccc3)cc2/C=C/C(=O)c2ccc(NC(=O)CCCCCCC(=O)NO)cc2)cc1 | inactive
